Reported Papp A→B values are given for each entry in this list.
Assay: in vitro
Conditions: human, Caco-2, pH 7.4, Mean Papp A to B, Caco-2, 2 μM, 2 hours, pH 7.40
Return type: number; implicit unit ×10⁻⁶ cm/s.

COCCc1ccc(OCC(O)CNC(C)C)cc1 (stereo not drawn) : 16.4

Moving on to the next compound.
[Q] Quick one: give measured Papp A→B for CC(C)(C)NCC(O)COc1cccc2c1CC(O)C(O)C2 (stereo not drawn)
[A] 0.08

---

Tested on: HIV-1 NL4-3 virus
Experiment: Anti-HIV-1 activity, multicycle assay with HIV-1 NL4-3 in TZM-bl cells
Assay type: cell-based
Details: Table 1; TZM-bl cells
observable: SI (selectivity index, ratio of CC50/EC50)

COc1ccc(N(C)C(=O)[C@H](Cc2cc(F)cc(F)c2)NC(=O)c2cn(Cc3ccccc3Cl)nn2)cc1 : >1.92
COc1ccc(N(C)C(=O)[C@H](Cc2cc(F)cc(F)c2)NC(=O)c2cn(Cc3ccccc3C)nn2)cc1 : >2.18
COc1ccc(N(C)C(=O)[C@H](Cc2cc(F)cc(F)c2)NC(=O)c2cn(-c3ccc4c(c3)OCO4)nn2)cc1 : >2.04
COc1ccc(N(C)C(=O)[C@H](Cc2cc(F)cc(F)c2)NC(=O)c2cn(Cc3ccc(C#N)cc3)nn2)cc1 : >3.23
COc1ccc(N(C)C(=O)[C@H](Cc2cc(F)cc(F)c2)NC(=O)c2cn(Cc3ccc(C(N)=O)cc3)nn2)cc1 : >1.64
COc1ccc(N(C)C(=O)[C@H](Cc2cc(F)cc(F)c2)NC(=O)c2cn(Cc3cccc(C#N)c3)nn2)cc1 : >5.27

# evaluate next
[Q] Look up and report measured SI (selectivity index, ratio of CC50/EC50) (HIV-1 NL4-3 virus) for the following compound: COc1ccc(N(C)C(=O)[C@H](Cc2cc(F)cc(F)c2)NC(=O)c2cn(Cc3ccc4ccccc4c3)nn2)cc1
[A] >1.23
